Value source: patent US11827701B2

target: T1, cynomolgus monkey IL-6 (Macaca fascicularis, UniProt P79341); experiment: Surface plasmon resonance (Biacore), cynomolgus monkey IL-6; type: binding; settings: cy/cyno; periplasmic fractions, 28A6 chain-shuffled
T1 construct: His
T1 sequence (P79341 28-212): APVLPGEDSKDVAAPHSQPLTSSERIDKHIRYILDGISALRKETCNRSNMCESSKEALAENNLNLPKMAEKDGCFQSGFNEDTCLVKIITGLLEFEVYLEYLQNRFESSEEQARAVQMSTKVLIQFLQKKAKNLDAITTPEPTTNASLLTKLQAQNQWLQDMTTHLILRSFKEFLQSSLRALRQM
Recorded measurements of kd, one per entry
Answer format: value, then unit.

Study these solved cases before continuing.
>>> reported("48H1g2, R4: 28A6 chain-shuffled Fab, periplasmic fraction (antibody, V domains shown) VH: QVQLVESGGGLVQPGGSLRLSCAASGFTFSNYYMTWVRQAPGKGLEWVSSIYSFSGDTAYADSVKGRFTISRDNAKNTLYLQMNSLKSEDTAVYYCTRNLGGVVVTTNGYDYWGQGTQVTVSS VL: DVVMTQSPSSLPTSLGDSVTITCQASQSISDELSWYQQKPGQTPKLLIYGASKLQTGVPSRFSGSGSGTSFTLTISGLEAEDLATYYCLQGYSWPFMFGQGTKVELK")
"9.46e-05 s⁻¹"
>>> reported("55E10g1: 28A6 chain-shuffled Fab, periplasmic fraction (antibody, V domains shown) VH: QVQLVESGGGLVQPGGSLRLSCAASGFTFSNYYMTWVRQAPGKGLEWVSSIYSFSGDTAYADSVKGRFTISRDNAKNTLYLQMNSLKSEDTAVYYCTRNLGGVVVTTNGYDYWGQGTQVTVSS VL: DIQMTQSPSSLPTSLGDSVTITCQASQSISDELSWYQQKPGQTPKLLIYGASKLQTGVPSRFSGSGSGTSFTLTISGLEAEDLATYYCLQGYSWPFMFGQGTKVELK")
"6.88e-05 s⁻¹"

Now, please, on to the next molecule.
Given the entry 55C11f: 28A6 chain-shuffled Fab, periplasmic fraction (antibody, V domains shown) VH: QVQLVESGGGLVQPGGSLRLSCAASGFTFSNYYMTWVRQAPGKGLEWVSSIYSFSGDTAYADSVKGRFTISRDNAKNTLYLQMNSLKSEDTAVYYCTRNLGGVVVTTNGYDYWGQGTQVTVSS VL: DIQLTQSPSSLSASLGDSVTITCQASQSISDELSWYQQKPGQTPKLLIYGASKLQTGVPSRFSGSGSGTSFTLTISGLEAEDLATYYCLQGYRWPFMFGQGTKVELK , report its measured kd. 8.9e-05 s⁻¹
